The following compounds are listed with their measured remaining at 2 h values.
test: Stability in SGF assessed as remaining compound after 120 mins; type: ADME; details: read-out: Stability
Write the value in % as a bare number.

Here is how some compounds turned out for remaining at 2 h.
# Structure notation, Recorded endpoint, Measured number
data = [
    ("CCCCCCCCCCCCCCCCOCCCOP(=O)(O)CO[C@H](CO)Cn1ccc(N)nc1=O", "remaining at 2 h", 43),
    ("CCCCCCCCCCCCCCSSCCOP(=O)(O)CO[C@H](CO)Cn1ccc(N)nc1=O.N", "remaining at 2 h", 77),
]

Q: // remaining at 2 h lookup, key: CCCCCCCCCCCCCCCCSSCCOP(=O)(O)CO[C@H](CO)Cn1ccc(N)nc1=O.N
A: 68

* * *

system: A549; assay: Cytotoxicity against human A549 cells incubated for 72 hrs by neutral red based spectrophotometric analysis; format: toxicity, cell-based; details: a549, 72 h
Mark true (1) for CC50 under 50 µM, false (0) if at or over.

# count of solved cases: 4
# Compound, Discrete label
measured = [
    ("CCCCCCCCCCCCCCCCCCSSCCOP(=O)(O)CO[C@H](CO)Cn1ccc(N)nc1=O.N", "true (1)"),
    ("CCCCCCCCCCCCSSCCOP(=O)(O)CO[C@H](CO)Cn1ccc(N)nc1=O", "true (1)"),
    ("CCCCCCCCCCCCSSCCCOP(=O)(O)CO[C@H](CO)Cn1ccc(N)nc1=O", "true (1)"),
    ("CCCCCCCCSSCCCCCCOP(=O)(O)CO[C@H](CO)Cn1ccc(N)nc1=O", "false (0)"),
]

Q: Lab log: compare recorded CC50 with 50 µM; is it strictly lower for CCCCCCCCCCCCCCCCSSCCCOP(=O)(O)CO[C@H](CO)Cn1ccc(N)nc1=O ?
A: true (1)

Q: Given CCCCCCCCCCCCCCCCSSCCCCOP(=O)(O)CO[C@H](CO)Cn1ccc(N)nc1=O.N , is recorded CC50 strictly lower than 50 µM?
A: true (1)

Q: I wonder whether CCCCCCCCCCCCCCCCOCCCOP(=O)(O)CO[C@H](CO)Cn1ccc(N)nc1=O [BRINCIDOFOVIR] has CC50 below 50 µM. Can you tell?
A: true (1)

Q: Please determine if CCCCCCCCCCSSCCOP(=O)(O)CO[C@H](CO)Cn1ccc(N)nc1=O is below 50 µM in terms of CC50.
A: false (0)

Q: I wonder whether CCCCCCCCCCCCCCSSCCOP(=O)(O)CO[C@H](CO)Cn1ccc(N)nc1=O.N has CC50 below 50 µM. Can you tell?
A: true (1)

Q: Hello, is CC50 of the following compound strictly smaller than 50 µM? CCCCCCCCCCSSCCCCCCOP(=O)(O)CO[C@H](CO)Cn1ccc(N)nc1=O
A: false (0)

Q: Hello, I'm reviewing records and need to know if CC50 of CCCCCCCCCCCCCCSSCCCCCCOP(=O)(O)CO[C@H](CO)Cn1ccc(N)nc1=O.N is below 50 µM. Could you check?
A: false (0)

Q: Is 50 µM strictly greater than the compound's reported CC50? compound: CCCCCCCCCCSSCCCCOP(=O)(O)CO[C@H](CO)Cn1ccc(N)nc1=O
A: false (0)

Q: hey, is CC50 for CCCCCCCCCCCCCCCCSSCCOP(=O)(O)CO[C@H](CO)Cn1ccc(N)nc1=O.N lower than 50 µM or not?
A: true (1)

Q: Find out if reported CC50 for CCCCCCCCCCCCSSCCCCOP(=O)(O)CO[C@H](CO)Cn1ccc(N)nc1=O is less than 50 µM
A: false (0)

Q: Is it true that CC50 reported for CCCCCCCCCCCCCCCCCCSSCCCOP(=O)(O)CO[C@H](CO)Cn1ccc(N)nc1=O is less than 50 µM?
A: true (1)

Q: Dear colleague, could you confirm whether CC50 of CCCCCCCCCCSSCCCOP(=O)(O)CO[C@H](CO)Cn1ccc(N)nc1=O falls below 50 µM? Thanks.
A: false (0)

Q: Determine whether this compound shows CC50 lower than 50 µM (ties excluded): CCCCCCCCCCCCSSCCCCCCOP(=O)(O)CO[C@H](CO)Cn1ccc(N)nc1=O.N
A: false (0)

Q: CC50 under 50 µM? Item: CCCCCCCCCCCCCCSSCCCCOP(=O)(O)CO[C@H](CO)Cn1ccc(N)nc1=O.N
A: true (1)
